# experimentSummary: The drug is tested on WLS-027 corresponding to human gut metagenome with ENA study accession number: PRJEB37062 and ENA sample accession number: ERS12561744 for biotransformation under anaerobic condition. The drug concentrations were measured over 9 timepoints collected between 0 and 24 hours of incubation by liquid-chromatography-coupled mass spectrometry (LC–MS); also: call rule not given here
# assaySetup: 2 µM
metric: Bacterial Biotransformation

# example entries with known answers
CN1CCN(C2=Nc3ccccc3Oc3ccc(Cl)cc32)CC1.O=C(O)CCC(=O)O [LOXAPINE SUCCINATE] = Compound NOT metabolized
CCN1CCCC1CNC(=O)c1cc(S(=O)(=O)CC)c(N)cc1OC (configuration not stated) [AMISULPRIDE] = Compound NOT metabolized
CC(=O)OCC(=O)[C@@]1(OC(C)=O)[C@@H](C)C[C@H]2[C@@H]3C[C@H](F)C4=CC(=O)C=C[C@]4(C)[C@@]3(F)[C@@H](O)C[C@@]21C [DIFLORASONE DIACETATE] = Compound metabolized
O=P1(N(CCCl)CCCl)NCCCO1 (configuration not stated) [CYCLOPHOSPHAMIDE ANHYDROUS] = Compound NOT metabolized
O=C1CC2(CCCC2)CC(=O)N1CCCCN1CCN(c2ncccn2)CC1 [BUSPIRONE] = Compound NOT metabolized

Query (compound): O=C(O)CCC(=O)O.O=C(O[C@H]1CN2CCC1CC2)N1CCc2ccccc2[C@@H]1c1ccccc1 [SOLIFENACIN SUCCINATE] ; field requested: Bacterial Biotransformation Compound metabolized

Try C#C[C@]1(OC(C)=O)CC[C@H]2[C@@H]3CCC4=CC(=O)CC[C@@H]4[C@H]3CC[C@@]21C [NORETHINDRONE ACETATE] next. Compound metabolized

###

# assaySetup: human gut metagenome, 24 h, 2 µM
metric: Bacterial Biotransformation

# example entries with known answers
O=C(NC(Cc1cc(=O)[nH]c2ccccc12)C(=O)O)c1ccc(Cl)cc1 (stereo unspecified) [REBAMIPIDE] = Compound metabolized
Cc1ccccc1C(OCCN(C)C)c1ccccc1.O=C(O)CC(O)(CC(=O)O)C(=O)O (stereo unspecified) [ORPHENADRINE CITRATE] = Compound NOT metabolized
C=C[C@H]1CN2CC[C@H]1C[C@H]2[C@H](O)c1ccnc2ccc(OC)cc12.C=C[C@H]1CN2CC[C@H]1C[C@H]2[C@H](O)c1ccnc2ccc(OC)cc12.O.O.O=S(=O)(O)O [QUININE SULFATE] = Compound NOT metabolized
CC(N)C12CC3CC(CC(C3)C1)C2 (stereo unspecified) = Compound NOT metabolized
CCCCCNC(=N)N/N=C/c1c[nH]c2ccc(OC)cc12.O=C(O)/C=C\C(=O)O [TEGASEROD MALEATE] = Compound NOT metabolized
COc1ccc(Cc2nccc3cc(OC)c(OC)cc23)cc1OC = Compound metabolized
CN(C)C(=O)Oc1cc(OC(=O)N(C)C)cc(C(O)CNC(C)(C)C)c1 (stereo unspecified) = Compound NOT metabolized
CC[C@@]1(O)C(=O)OCc2c1cc1n(c2=O)Cc2cc3c(CN(C)C)c(O)ccc3nc2-1 = Compound NOT metabolized

Query (compound): CCOC(=O)C1=C[C@]2(CC)CCCN3CCc4c(n1c1ccccc41)[C@@H]32 ; field requested: Bacterial Biotransformation Compound metabolized

Try O=C(O)CCC(=O)O.O=C(O[C@H]1CN2CCC1CC2)N1CCc2ccccc2[C@@H]1c1ccccc1 [SOLIFENACIN SUCCINATE] next. Compound metabolized

Try CC(C)[C@H]1CC[C@H](C(=O)N[C@H](Cc2ccccc2)C(=O)O)CC1 [NATEGLINIDE] next. Compound metabolized

Try N#Cc1ccc2[nH]cc(CCCCN3CCN(c4ccc5oc(C(N)=O)cc5c4)CC3)c2c1 next. Compound metabolized

Try CCc1cccc2c3c([nH]c12)C(CC)(CC(=O)O)OCC3 (stereo unspecified) next. Compound metabolized

Try COc1ccc(C(CN(C)C)C2(O)CCCCC2)cc1 (stereo unspecified) next. Compound NOT metabolized

Try CC(=O)O[C@]1(C(C)=O)CC[C@H]2[C@@H]3C=C(C)C4=CC(=O)CC[C@]4(C)[C@H]3CC[C@@]21C [MEGESTROL ACETATE] next. Compound metabolized

Try CN(C)CCOC(C)(c1ccccc1)c1ccccn1.O=C(O)CCC(=O)O (stereo unspecified) [DOXYLAMINE SUCCINATE] next. Compound NOT metabolized
